Target: hCA II (Homo sapiens, UniProt P00918)
Construct: made in house
Assay: stopped flow CO2 hydrase assay, hCA II
Format: biochemical
Conditions: recombinant enzyme, 15 min incubation, mean from three assays, errors ± 5–10%; read-out: KI (nM) hCA II
measurement_name: Ki (nM)
Express your answer in nM, writing the number without its unit.

QUERY: Any idea what Ki was measured for COc1cccc2c1OS(=O)(=O)N=C2 ?
RESULT: 39

QUERY: Any idea what Ki was measured for COc1ccc2c(c1)OS(=O)(=O)N=C2 ?
RESULT: 55.2

QUERY: Any idea what Ki was measured for O=S1(=O)N=Cc2cccc(F)c2O1 ?
RESULT: 89.2

QUERY: Any idea what Ki was measured for COc1ccc(-c2ccc3c(c2)OS(=O)(=O)N=C3)cc1 ?
RESULT: 14.3

QUERY: Any idea what Ki was measured for COc1ccc(-c2cccc3c2C=NS(=O)(=O)O3)cc1 ?
RESULT: 36900

QUERY: Any idea what Ki was measured for O=S1(=O)N=Cc2cc(F)ccc2O1 ?
RESULT: 71.8

QUERY: Any idea what Ki was measured for O=S1(=O)N=Cc2c(cccc2-c2ccc(F)cc2)O1 ?
RESULT: 14800

QUERY: Any idea what Ki was measured for O=S1(=O)N=Cc2ccc(-c3ccccc3)cc2O1 ?
RESULT: 7.7

QUERY: Any idea what Ki was measured for O=S1(=O)N=Cc2ccc(F)cc2O1 ?
RESULT: 86.7

QUERY: Any idea what Ki was measured for Cc1ccc2c(c1)OS(=O)(=O)N=C2 ?
RESULT: 78.9

QUERY: Any idea what Ki was measured for COc1ccc2c(c1)C=NS(=O)(=O)O2 ?
RESULT: 168

QUERY: Any idea what Ki was measured for O=S1(=O)N=Cc2c(cccc2-c2ccccc2)O1 ?
RESULT: 9870

QUERY: Any idea what Ki was measured for CCOC(=O)c1ccc(-c2ccc3c(c2)OS(=O)(=O)N=C3)cc1 ?
RESULT: 0.8

QUERY: Any idea what Ki was measured for O=S1(=O)N=Cc2ccc(Br)cc2O1 ?
RESULT: 45.1

QUERY: Any idea what Ki was measured for O=S1(=O)N=Cc2cccc(-c3ccc(F)cc3)c2O1 ?
RESULT: 5.6

QUERY: Any idea what Ki was measured for COc1ccc(-c2cccc3c2OS(=O)(=O)N=C3)cc1 ?
RESULT: 12.3

QUERY: Any idea what Ki was measured for O=S1(=O)N=Cc2cccc(-c3ccc(Cl)c(Cl)c3)c2O1 ?
RESULT: 9.5

QUERY: Any idea what Ki was measured for O=S1(=O)N=Cc2cccc(Br)c2O1 ?
RESULT: 113

QUERY: Any idea what Ki was measured for O=S1(=O)N=Cc2cccc(-c3ccccc3)c2O1 ?
RESULT: 0.5

QUERY: Any idea what Ki was measured for Cc1ccc2c(c1)C=NS(=O)(=O)O2 ?
RESULT: 116

QUERY: Any idea what Ki was measured for O=S1(=O)N=Cc2ccc(-c3ccc(F)cc3)cc2O1 ?
RESULT: 2.1

QUERY: Any idea what Ki was measured for O=S1(=O)N=Cc2cc(Br)ccc2O1 ?
RESULT: 8320

====

Molecular target: hCA IX (Homo sapiens, UniProt Q16790)
Construct: made in house
Test: stopped flow CO2 hydrase assay, hCA IX
Type: biochemical
Settings: recombinant enzyme, 15 min incubation, mean from three assays, errors ± 5–10%
measurement_name: log10 Ki (log10 of the value in nM)
Hey, these are logged values: log10 of Ki, nM being the unit before logging.

QUERY: Any idea what log10 Ki was measured for O=S1(=O)N=Cc2cc(F)ccc2O1 ?
RESULT: 1.77

QUERY: Any idea what log10 Ki was measured for O=S1(=O)N=Cc2cc(Br)ccc2O1 ?
RESULT: 1.44

QUERY: Any idea what log10 Ki was measured for O=S1(=O)N=Cc2cccc(Br)c2O1 ?
RESULT: 1.62

QUERY: Any idea what log10 Ki was measured for O=S1(=O)N=Cc2c(cccc2-c2ccc(F)cc2)O1 ?
RESULT: 3.62

QUERY: Any idea what log10 Ki was measured for O=S1(=O)N=Cc2ccc(-c3ccccc3)cc2O1 ?
RESULT: 1.46

QUERY: Any idea what log10 Ki was measured for O=S1(=O)N=Cc2c(cccc2-c2ccccc2)O1 ?
RESULT: 3.72

QUERY: Any idea what log10 Ki was measured for Cc1ccc2c(c1)OS(=O)(=O)N=C2 ?
RESULT: 1.73

QUERY: Any idea what log10 Ki was measured for COc1cccc2c1OS(=O)(=O)N=C2 ?
RESULT: 1.87

QUERY: Any idea what log10 Ki was measured for COc1ccc(-c2cccc3c2OS(=O)(=O)N=C3)cc1 ?
RESULT: 1.80

QUERY: Any idea what log10 Ki was measured for COc1ccc(-c2ccc3c(c2)OS(=O)(=O)N=C3)cc1 ?
RESULT: 1.66

QUERY: Any idea what log10 Ki was measured for COc1ccc2c(c1)C=NS(=O)(=O)O2 ?
RESULT: 1.80

QUERY: Any idea what log10 Ki was measured for O=S1(=O)N=Cc2ccc(F)cc2O1 ?
RESULT: 1.74

QUERY: Any idea what log10 Ki was measured for O=S1(=O)N=Cc2cccc(F)c2O1 ?
RESULT: 1.82

QUERY: Any idea what log10 Ki was measured for O=S1(=O)N=Cc2cccc(-c3ccccc3)c2O1 ?
RESULT: 1.69

QUERY: Any idea what log10 Ki was measured for COc1ccc2c(c1)OS(=O)(=O)N=C2 ?
RESULT: 1.60

QUERY: Any idea what log10 Ki was measured for O=S1(=O)N=Cc2ccc(Br)cc2O1 ?
RESULT: 1.35

QUERY: Any idea what log10 Ki was measured for O=S1(=O)N=Cc2cccc(-c3ccc(F)cc3)c2O1 ?
RESULT: 1.51

QUERY: Any idea what log10 Ki was measured for O=S1(=O)N=Cc2cccc(-c3ccc(Cl)c(Cl)c3)c2O1 ?
RESULT: 1.61

QUERY: Any idea what log10 Ki was measured for Cc1ccc2c(c1)C=NS(=O)(=O)O2 ?
RESULT: 1.86

QUERY: Any idea what log10 Ki was measured for O=S1(=O)N=Cc2ccc(-c3ccc(F)cc3)cc2O1 ?
RESULT: 1.84

QUERY: Any idea what log10 Ki was measured for CCOC(=O)c1ccc(-c2ccc3c(c2)OS(=O)(=O)N=C3)cc1 ?
RESULT: 1.58

QUERY: Any idea what log10 Ki was measured for COc1ccc(-c2cccc3c2C=NS(=O)(=O)O3)cc1 ?
RESULT: 4.04

====

measurement_name: melting point

QUERY: Any idea what melting point was measured for COc1ccc(-c2cccc3c2OS(=O)(=O)N=C3)cc1 ?
RESULT: 133 to 134 °C

QUERY: Any idea what melting point was measured for O=S1(=O)N=Cc2cccc(-c3ccccc3)c2O1 ?
RESULT: 164 to 165 °C

QUERY: Any idea what melting point was measured for O=S1(=O)N=Cc2ccc(-c3ccccc3)cc2O1 ?
RESULT: 171 to 172 °C

QUERY: Any idea what melting point was measured for O=S1(=O)N=Cc2ccc(-c3ccc(F)cc3)cc2O1 ?
RESULT: 164 to 165 °C

QUERY: Any idea what melting point was measured for O=S1(=O)N=Cc2c(cccc2-c2ccccc2)O1 ?
RESULT: 156 to 157 °C

====

For each of the compounds below, state its Ki.
Target: hCA XII (Homo sapiens, UniProt O43570)
Construct: made in house
Sequence (O43570 25-354): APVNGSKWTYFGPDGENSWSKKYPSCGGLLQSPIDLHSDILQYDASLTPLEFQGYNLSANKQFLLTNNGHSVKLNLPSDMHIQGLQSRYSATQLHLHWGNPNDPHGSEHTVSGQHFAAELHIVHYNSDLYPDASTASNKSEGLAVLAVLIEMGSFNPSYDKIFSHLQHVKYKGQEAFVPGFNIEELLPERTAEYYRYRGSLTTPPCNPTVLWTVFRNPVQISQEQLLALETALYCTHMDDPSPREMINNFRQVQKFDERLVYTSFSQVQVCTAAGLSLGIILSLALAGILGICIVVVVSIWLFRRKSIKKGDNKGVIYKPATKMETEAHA
Assay: stopped flow CO2 hydrase assay, hCA XII
Assay type: biochemical
Details: recombinant enzyme, 15 min incubation, mean from three assays, errors ± 5–10%
Express your answer in nM, writing the number without its unit.

QUERY: Any idea what Ki was measured for O=S1(=O)N=Cc2cc(F)ccc2O1 ?
RESULT: 121

QUERY: Any idea what Ki was measured for O=S1(=O)N=Cc2c(cccc2-c2ccccc2)O1 ?
RESULT: 12600

QUERY: Any idea what Ki was measured for COc1ccc(-c2cccc3c2OS(=O)(=O)N=C3)cc1 ?
RESULT: 7.3

QUERY: Any idea what Ki was measured for O=S1(=O)N=Cc2cccc(-c3ccc(F)cc3)c2O1 ?
RESULT: 12.4

QUERY: Any idea what Ki was measured for O=S1(=O)N=Cc2cccc(-c3ccc(Cl)c(Cl)c3)c2O1 ?
RESULT: 4.8

QUERY: Any idea what Ki was measured for COc1ccc(-c2cccc3c2C=NS(=O)(=O)O3)cc1 ?
RESULT: 18000

QUERY: Any idea what Ki was measured for O=S1(=O)N=Cc2ccc(F)cc2O1 ?
RESULT: 112

QUERY: Any idea what Ki was measured for COc1ccc2c(c1)OS(=O)(=O)N=C2 ?
RESULT: 83.1

QUERY: Any idea what Ki was measured for O=S1(=O)N=Cc2cc(Br)ccc2O1 ?
RESULT: 186

QUERY: Any idea what Ki was measured for Cc1ccc2c(c1)C=NS(=O)(=O)O2 ?
RESULT: 98.2

QUERY: Any idea what Ki was measured for Cc1ccc2c(c1)OS(=O)(=O)N=C2 ?
RESULT: 58

QUERY: Any idea what Ki was measured for CCOC(=O)c1ccc(-c2ccc3c(c2)OS(=O)(=O)N=C3)cc1 ?
RESULT: 90.5

QUERY: Any idea what Ki was measured for O=S1(=O)N=Cc2cccc(-c3ccccc3)c2O1 ?
RESULT: 61.8

QUERY: Any idea what Ki was measured for O=S1(=O)N=Cc2c(cccc2-c2ccc(F)cc2)O1 ?
RESULT: 7460

QUERY: Any idea what Ki was measured for COc1ccc2c(c1)C=NS(=O)(=O)O2 ?
RESULT: 75.1

QUERY: Any idea what Ki was measured for O=S1(=O)N=Cc2cccc(Br)c2O1 ?
RESULT: 86.3

QUERY: Any idea what Ki was measured for O=S1(=O)N=Cc2cccc(F)c2O1 ?
RESULT: 34.7

QUERY: Any idea what Ki was measured for COc1ccc(-c2ccc3c(c2)OS(=O)(=O)N=C3)cc1 ?
RESULT: 36.4

QUERY: Any idea what Ki was measured for O=S1(=O)N=Cc2ccc(-c3ccccc3)cc2O1 ?
RESULT: 78.3

QUERY: Any idea what Ki was measured for O=S1(=O)N=Cc2ccc(Br)cc2O1 ?
RESULT: 70.1

QUERY: Any idea what Ki was measured for COc1cccc2c1OS(=O)(=O)N=C2 ?
RESULT: 63.4

QUERY: Any idea what Ki was measured for O=S1(=O)N=Cc2ccc(-c3ccc(F)cc3)cc2O1 ?
RESULT: 8.2

QUERY: Any idea what Ki was measured for O=S1(=O)N=Cc2c(cccc2-c2ccc(Cl)c(Cl)c2)O1 ?
RESULT: 45300
